Task for the reader: assign each of the following compounds its reported inhibition.
# Assay Comment: TEAD-YAP interaction inhibition, primary screen, TEAD-YAP interaction inhibitor project, luminescence, HEK-TIYL cells (AID 1259422);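 note: 0% = median of test compound wells and 100% = reference inhibitor wells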
# Condition Details: TEAD-Gal4/YAP UAS-luciferase luminescence, at 9.12 µM, hits give high values
Hit rate of the full screen: of about 640,000 compounds, about 9,300 (1.5%) were called active. What follows is part of a selection rich in actives, with near analogues and random picks from the rest.
Report the figure in % without appending any unit label.

Q) Fill in inhibition for record COC(=O)CSc1nnc(-c2cccc(OC)c2)n1C
A) 8.2

Q) Fill in inhibition for record COc1ccc(NC(=O)c2ccc([N+](=O)[O-])o2)cc1OC
A) 5.63

Q) Fill in inhibition for record COc1cccc(-c2nnc(SCC(=O)Nc3ccccc3)n2-n2cccc2)c1
A) 47.3

Q) Fill in inhibition for record CCS(=O)(=O)c1cc([N+](=O)[O-])c(Sc2ccccc2N)s1
A) 75.8

Q) Fill in inhibition for record Nc1c(Cl)cc(N2C(=O)c3cccc([N+](=O)[O-])c3C2=O)cc1Br
A) -3.28

Q) Fill in inhibition for record CCC(CC)NS(=O)(=O)c1ccccc1[N+](=O)[O-]
A) 12.2

###

Task for the reader: assign each of the following molecules its reported inhibition.
# Assay Comment: TEAD-YAP interaction inhibition, primary screen, TEAD-YAP interaction inhibitor project, luminescence, HEK-TIYL cells (AID 1259422);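 note: 0% = median of test compound wells and 100% = reference inhibitor wells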
# Condition Details: TEAD-Gal4/YAP UAS-luciferase luminescence, at 9.12 µM, hits give high values
Out of some 640,000 compounds screened, about 9,300 (1.5%) were called active. This excerpt belongs to a sample that is enriched for actives.
Report the figure in % without appending any unit label.

Q) Fill in inhibition for record O=c1oc2ccc(Br)cc2cc1-c1cn2c(n1)sc1ccccc12
A) 2.88

Q) Fill in inhibition for record COc1ccc(NC(=O)/C(=C\c2ccc3c(c2)OCO3)NC(=O)c2ccccc2Cl)c(OC)c1
A) 21.2

Q) Fill in inhibition for record O=C(Nc1ccc2c(c1)OCCO2)Nc1nnc(N2CCCCCC2)s1
A) -9.25

Q) Fill in inhibition for record O=C(c1ccc2nc(N3CCCCC3)sc2c1)N1CCN(c2ccccc2)CC1
A) -69.3

Q) Fill in inhibition for record CCCCCCc1cc2cc(-c3cn4c(n3)sc3cc(Cl)ccc34)c(=O)oc2cc1O
A) -3.76

Q) Fill in inhibition for record COc1ccc(NC(=O)c2sc3nc(-c4cccc([N+](=O)[O-])c4)cn3c2C)cc1
A) 4.9

Q) Fill in inhibition for record O=c1oc2ccccc2cc1-c1cn2c(n1)sc1cc(Cl)ccc12
A) 62.5

Q) Fill in inhibition for record CCn1c(=O)cc(SCC(=O)Nc2cccc([N+](=O)[O-])c2C)c2ccccc21
A) -12.2

Q) Fill in inhibition for record COCCNc1cc(-c2cncc(-c3ccc(F)cc3)c2)nc(C)n1
A) -1.76

Q) Fill in inhibition for record c1c2c(cc3sc(N4CCCCC4)nc13)OCCO2
A) 80.9

###

Task for the reader: assign each of the following molecules its reported inhibition.
# Assay Comment: TEAD-YAP interaction inhibition, primary screen, TEAD-YAP interaction inhibitor project, luminescence, HEK-TIYL cells (AID 1259422);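 note: 0% = median of test compound wells and 100% = reference inhibitor wells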
# Condition Details: TEAD-Gal4/YAP UAS-luciferase luminescence, at 9.12 µM, hits give high values
Screen size: about 640,000 compounds; about 9,300 (1.5%) were called active. This excerpt belongs to a sample that is enriched for actives.
Report the figure in % without appending any unit label.

Q) Fill in inhibition for record Cc1cc(/C=C2/C(=N)N3C=CSC3=NC2=O)c(C)n1-c1ccccc1F
A) 86.4

Q) Fill in inhibition for record CC(=O)Nc1ccc2nc(NC(=O)c3ccc(S(=O)(=O)N4CCCCC4)cc3)sc2c1
A) 1.92

Q) Fill in inhibition for record Cc1cc(/C=C2\C(=N)N3N=C(S(C)(=O)=O)SC3=NC2=O)c(C)n1-c1ccc(F)cc1
A) 4.07

Q) Fill in inhibition for record O=C(O)c1cccc(OCC(O)Cn2cnc3ccccc32)c1 (stereo not given)
A) 10

Q) Fill in inhibition for record CC(=O)Nc1ccc2nc(NC(=O)c3cc4cc([N+](=O)[O-])ccc4s3)sc2c1
A) 16.6

Q) Fill in inhibition for record O=C1CSC(c2ccc(F)c(F)c2)N1c1ccc(Br)cc1 (stereo not given)
A) -4.77

Q) Fill in inhibition for record O=C(C1CC=CCC1)N1CCn2cnnc2C1 (stereo not given)
A) 1.34

Q) Fill in inhibition for record CC1=CC2=NC(=O)/C(=C\c3cc(C)n(-c4cccc(C)c4C)c3C)C(=N)N2O1
A) 9.28

Q) Fill in inhibition for record COc1cc(OC)cc(C(=O)Nc2cc(C(=O)Nc3ccc(OC)c(OC)c3)ccc2N2CC3CC(C2)c2cccc(=O)n2C3)c1 (stereo not given)
A) -0.12

Q) Fill in inhibition for record Cc1cc(C)c(/C=C/c2cc(C(F)(F)F)[nH]c(=O)n2)cc1C
A) -9.26

###

# Assay Comment: TEAD-YAP interaction inhibition, primary screen, TEAD-YAP interaction inhibitor project, luminescence, HEK-TIYL cells (AID 1259422);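 note: 0% = median of test compound wells and 100% = reference inhibitor wells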
# Condition Details: TEAD-Gal4/YAP UAS-luciferase luminescence, at 9.12 µM
Among all 640,000 compounds or so, about 9,300 (1.5%) were called active. Rule as the data show it: active = inhibition above about 32%; inactive = the rest. The sample as a whole holds a higher share of actives than the screen did.
Entry note: the call must match one of active, inactive

Q) Called result for CC(=O)Nc1ccc(Nc2nc(-c3ccc(C(N)=O)cc3)nc3nc[nH]c23)cc1
A) inactive

Q) Called result for COc1ccc(-c2nc(N)c3[nH]cnc3n2)cc1
A) inactive

Q) Called result for CC(=O)N1CCC(N(C(=O)C2CC2)c2ccc3c(c2)CCN3C(C)=O)CC1
A) active

Q) Called result for CC(=O)N1c2ccccc2N=C(c2ccc(C)cc2)CC1c1ccc([N+](=O)[O-])cc1 (stereo unspecified)
A) inactive

Q) Called result for O=C(Nc1ccc2c(c1)CN(C1CCOCC1)CC2)c1ccc(C(F)(F)F)cc1
A) inactive

Q) Called result for CC(=O)N1CCc2cc(S(=O)(=O)NCCC(=O)O)ccc21
A) inactive

Q) Called result for COc1ccccc1-n1cnc2cc(NC(=O)c3ccccc3)ccc21
A) active

Q) Called result for COc1cc2nc(Nc3cccc(N(C)C)c3)nc(Nc3cc(OC)c(OC)c(OC)c3)c2cc1OC
A) inactive

Q) Called result for CC(C)c1nnc(NC(=O)CCN2C(=O)C3C4C=CC(C4)C3C2=O)s1 (stereo unspecified)
A) inactive

Q) Called result for COc1ccc(-c2nc(Nc3cc(OC)c(OC)c(OC)c3)c3[nH]cnc3n2)cc1
A) active

Q) Called result for Cc1ccc(-c2cc(C(=O)Nc3ccc(Br)cc3Br)c3ccccc3n2)o1
A) inactive

Q) Called result for Cc1cccc(C(=O)Nc2ncc3c(n2)CC(C)(C)CC3=O)c1
A) inactive

Q) Called result for Cc1ccc(C2=Nc3ccccc3N=C(c3ccc(C(C)(C)C)cc3)C2)c(O)c1
A) active

Q) Called result for COc1cc(Nc2cc(C)nc(Nc3nc4ccccc4n3C)n2)cc(OC)c1OC
A) inactive

Q) Called result for Oc1ccc(Cl)cc1C1=Nc2ccccc2N=C(c2cccc(F)c2)C1
A) inactive

Q) Called result for N#Cc1ccc(C23CC4CC(CC(C4)C2)C3)nc1SCC(=O)Nc1nc2ccccc2s1
A) inactive

Q) Called result for COc1cc(Nc2nc(Nc3cc(OC)c(OC)c(OC)c3)c3[nH]cnc3n2)cc(OC)c1OC
A) inactive

Q) Called result for COc1ccc(-c2nc(C)cc(Nc3cc(OC)c(OC)c(OC)c3)n2)cc1
A) active

Q) Called result for CCOC(=O)C1(CO)NC(c2ccc(O)cc2)C2C(=O)N(C)C(=O)C21 (stereo unspecified)
A) inactive

Q) Called result for CCOc1cc(/C=C2/C(=N)N3N=C(CC)SC3=NC2=O)cc(Cl)c1OCCOc1ccccc1
A) inactive

Q) Called result for CC(C)C[C@@H]1NC(=O)[C@@H]2C[C@H](NC(=O)Nc3ccccc3)CN2C1=O
A) inactive

###

Task for the reader: assign each of the following compounds its reported inhibition.
# Assay Comment: TEAD-YAP interaction inhibition, primary screen, TEAD-YAP interaction inhibitor project, luminescence, HEK-TIYL cells (AID 1259422);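 note: 0% = median of test compound wells and 100% = reference inhibitor wells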
# Condition Details: TEAD-Gal4/YAP UAS-luciferase luminescence, at 9.12 µM, hits give high values
In all, about 640,000 compounds went through this assay and about 9,300 (1.5%) were called active. The entries come from a sample that favours actives as a whole.
Report the figure in % without appending any unit label.

Q) Fill in inhibition for record COc1cccc(/C=N/N2CCN(Cc3ccc(C)cc3)CC2)c1
A) -0.53

Q) Fill in inhibition for record COC(CNc1cc(-c2cccc(C(F)(F)F)c2)nc(-c2ccncc2)n1)OC
A) 14.2

Q) Fill in inhibition for record O=C1CCCN1CCCNc1cc(-c2cccs2)ncn1
A) -13.2

Q) Fill in inhibition for record Clc1ccc(CN2CCN(/N=C/c3c(Cl)nc4ccccn34)CC2)cc1
A) 35.3

Q) Fill in inhibition for record CCc1cc(=O)[nH]c(NC2CCN(S(=O)(=O)c3ccccc3)CC2)n1
A) 4.67

Q) Fill in inhibition for record Cc1nc2ccccn2c1CN1CCN(CC(O)COCc2ccc(Cl)cc2)CC1 (stereo unspecified)
A) 22.8
